# System: SNB-19 CNS
# experiment.notes: NCI-60 one-dose screen, 48 h (100 = growth as untreated, 0 = no growth, -100 = all killed)
# measurement.context: 10 µM unless noted
# Description: Growth inhibition of the SNB-19 human tumor cell line is measured as a screen for anti-cancer activity. Cells are grown in 96 well plates and exposed to the test compound for 48 hours. Compounds are tested at a single concentration, which is 10^-5 M for most compounds. The reported endpoint is percent growth (GI% or GIPRCNT), where numbers from 0 - 100% represent growth inhibition, and numbers from -100% - 0 represent cell death. For example, a value of 40 represents 60% growth inhibition. […]
The panel holds about 83,000 compounds, 20% with a hit somewhere; the sample as a whole holds those more often. Active and inactive are the calls of the source. How the source made its calls: active means growth percent below 10; inactive means the rest.
Reported values of growth for individual entries

C[C@@H]1CN(c2cnc(C(=O)Nc3cc(F)cc4cccnc34)cn2)C[C@H](C)N1: 92.4% (inactive)
Cc1[nH]n(-c2cccc(Cl)c2)c(=O)c1/C=C1\C=c2ccccc2=CC1=O: 31.4% (inactive)
N#Cc1c(-c2ccc(Br)cc2)nc2c(N=Nc3ccc(S(N)(=O)=O)cc3)c(N)nn2c1N: 61.6% (inactive)
Nc1ncccc1O: 101% (inactive)
Cc1cn(C)cn1: 107% (inactive)
Cc1cc(O)cc(-c2nn(C)cc2-c2cc(N3CCOCC3)nc(-c3cccnc3)n2)c1: 33.8% (inactive)
CCn1cc(C(=O)N/N=C/c2ccccc2)c(=O)c2cc(F)c(N3CCNC(C)C3)c(F)c21 (stereo not given): 18.9% (inactive)
COC(=O)Cn1c2c(c3c(OC)cccc31)C(=O)c1ccccc1-2: 90.5% (inactive)
O=C(NCCCCO)c1cncnc1Nc1ccc2c(ccn2Cc2cccc(F)c2)c1: 85.1% (inactive)
O=C(/C=C/C12c3ccccc3C(c3ccccc31)C1C(=O)NC(=O)C12)c1ccc(I)cc1 (stereo not given): 63.4% (inactive)

Prompt: Any idea what growth came out for CN(C)CCCC1(c2ccc(F)cc2)OCc2cc(-c3csc4ccccc34)ccc21 (stereo not given) on SNB-19 CNS?
Response: -35.6% (active)

Prompt: Any idea what growth came out for COc1cc2c(cc1OCCCN1CCN(C(=S)SCCC(C#N)(c3ccccc3)c3ccccc3)CC1)N=C[C@@H]1CCCN1C2=O on SNB-19 CNS?
Response: -44.4% (active)

Prompt: Any idea what growth came out for C=C1C(=O)O[C@H]2[C@H]1CC/C(COC(=O)C(=O)c1c[nH]c3ccc(Cl)cc13)=C\CC[C@@]1(C)O[C@@H]21 on SNB-19 CNS?
Response: -71.6% (active)

Prompt: Any idea what growth came out for CN1CCOCCN(C)Cc2ccc3ccc(cc3c2)CN(C)CCOCCN(C)Cc2ccc3ccc(cc3c2)C1 on SNB-19 CNS?
Response: 86.5% (inactive)

Prompt: Any idea what growth came out for C=C1C(=O)O[C@H]2[C@H]1CC/C(CNC(=O)Cc1c[nH]c3ccccc13)=C\CC[C@@]1(C)O[C@@H]21 on SNB-19 CNS?
Response: 57.5% (inactive)

====

# Tested on: HCT-15 colon
# experiment.notes: NCI-60 one-dose screen, 48 h (100 = growth as untreated, 0 = no growth, -100 = all killed)
# measurement.context: 10 µM unless noted
The panel holds about 83,000 compounds, 20% with a hit somewhere; the sample as a whole holds those more often.
Reported values of growth for individual entries
Supply the numeric figure in %, leaving out any unit text.

Here's what some known entries look like.
Fc1ccc2[nH]cc(-c3nc(-c4c[nH]c5c(Cl)nccc45)cs3)c2c1: -39.6
CSc1ccc(N2C(=N)C(=S)N(c3ccc(C)cc3)C2=O)cc1: 85.9
CC1=C2CC/C(C)=C/CC[C@]3(C)O[C@H]3CC/C(C)=C/[C@H]2OC1: 97.9

Prompt: Any idea what growth came out for COC1/C=C/OC2(C)Oc3c(C)c(O)c4c(O)c(c(/C=N/N(c5ccccc5)c5ccccc5)c(O)c4c3C2=O)NC(=O)C(C)=C/C=C/C(C)C(O)C(C)C(O)C(C)C(OC(C)=O)C1C (centres undefined) on HCT-15 colon?
Response: 41.4

====

# System: SNB-75 CNS
# experiment.notes: NCI-60 one-dose screen, 48 h (100 = growth as untreated, 0 = no growth, -100 = all killed)
# measurement.context: 10 µM unless noted
About 83,000 compounds went through this panel and 20% of them were active in at least one assay; those are over-represented in the sample as a whole.
readout.type: growth (%)
Supply the numeric figure in %, leaving out any unit text.

Prompt: Report growth for Cc1ccc2nc(-c3ccc(C(=O)N/N=C/c4ccc([N+](=O)[O-])cc4)cc3)[nH]c2c1 please.
Response: 97.1

====

# Tested on: MDA-MB-435 melanoma
# experiment.notes: NCI-60 one-dose screen, 48 h (100 = growth as untreated, 0 = no growth, -100 = all killed)
# measurement.context: 10 µM unless noted
This is part of a sample that, as a whole, favours compounds with a hit. Of some 83,000 tested, about 20% had one in any assay. Active and inactive are the calls of the source. Rule for the calls: active = growth percent below 10; inactive = the rest.
Reported values of growth for individual entries

Here's what some known entries look like.
CN1C(=O)/C(=C/c2ccc(C(=O)Nc3ncc(Cc4cccc(C(F)(F)F)c4)s3)cc2)SC1=S: -27.2% (active)
CCOC(=O)C1=C(CCl)N(C)C(=O)NC1c1ccc2c(c1)OCO2 (stereo not given): 26.6% (inactive)

Prompt: Report growth for O=C(/C=C/c1ccccc1Cl)c1cccc(OCCCCOc2cccc(C(=O)/C=C/c3ccccc3Cl)c2)c1 please.
Response: 106% (inactive)

Prompt: Report growth for CCn1cc(C(=O)N/N=C/c2ccccc2)c(=O)c2cc(F)c(N3CCNC(C)C3)c(F)c21 (stereo not given) please.
Response: -88.1% (active)

Prompt: Report growth for CCSc1ccnc(N)n1 please.
Response: 112% (inactive)

Prompt: Report growth for COc1ccc(C(O)c2cc3c(N)c(C(=O)Nc4cccc5ccccc45)sc3nc2C)cc1 (stereo not given) please.
Response: -17.1% (active)

Prompt: Report growth for O=S(Nc1ccccc1)c1ccc(Cl)cc1 (stereo not given) please.
Response: 90.4% (inactive)

Prompt: Report growth for COc1cc2c(cc1-c1c(C)noc1C)ncc1nc(CN3CCOCC3)n([C@H](C)COC(F)F)c12 please.
Response: 35.8% (inactive)

Prompt: Report growth for CCOC(=O)c1c(NC(=O)c2ccccc2)sc2c3c(ccc12)OCN(C)C3 please.
Response: -88.5% (active)

Prompt: Report growth for COc1ccc(CNc2ccc3nc(NC(=O)CN4CCCCCC4)sc3c2)cc1 please.
Response: 94.1% (inactive)

====

# Tested on: U251 CNS
# experiment.notes: NCI-60 one-dose screen, 48 h
# measurement.context: 10 µM unless noted
About 83,000 compounds went through this panel and 20% of them were active in at least one assay; those are over-represented in the sample as a whole. Activity calls are given as the source filed them. How the source made its calls: active means growth percent below 10; inactive means the rest.
Give your call using only these classes: active, inactive

CCOc1ncc([N+](=O)[O-])c(OCC)n1: inactive
CC/C(=C(/c1ccc(O)cc1)c1ccc(OCCN2CCCCC2)cc1)c1ccc(OC)cc1: active
Nc1ncccc1O: inactive
COC(=O)[C@]1(C)CCC[C@]2(C)[C@H]3C[C@@H]4[C@H]5[C@@H]6CC/C(=N\OCC/C(N)=N/O)[C@H]5[C@@]3(CC[C@H]21)CC4(C(C)C)O6: inactive
O=C(C[C@]1(O)C(=O)Nc2ccc(Br)cc21)c1ccco1: inactive
CCOC(=O)c1c(C)nc2c(c1N)C(=O)C(=O)N2Cc1ccc(OC)cc1: inactive
Cc1cc(Cl)nc(N2CCN(CCNc3ccnc4cc(Cl)ccc34)CC2)n1: inactive
O=CCCCOCc1ccccc1: inactive

Prompt: State the result this test recorded for COc1cc2c(c(OC)c1OC)CCC(c1cccc(C(=O)Nc3ccc(Br)cc3)c1)O2 (centres undefined) .
Response: inactive

Prompt: State the result this test recorded for CCOC(=O)CC1CSC(N/N=C/c2ccc(F)c(Br)c2)=N1 (centres undefined) .
Response: inactive

Prompt: State the result this test recorded for COc1ccc(C(=O)Nc2ncc(Cc3ccc(Cl)cc3)s2)cc1 .
Response: inactive

====

# System: CCRF-CEM leukemia
# experiment.notes: NCI-60 one-dose screen, 48 h (100 = growth as untreated, 0 = no growth, -100 = all killed)
# measurement.context: 10 µM unless noted
Compounds without any hit were thinned out: in the full panel of roughly 83,000, 20% have a hit.
readout.type: growth (%)
Supply the numeric figure in %, leaving out any unit text.

Here's what some known entries look like.
NC(=O)c1ccccc1OCC(=O)Nc1ccc(Cl)c(Cl)c1: 92.3
CCCCC#Cc1c(I)n(C2OC(CO[Si](C)(C)C(C)(C)C)C3OC(C)(C)OC32)c(=O)n(C(=O)c2ccccc2)c1=O (centres undefined): -7.06
CCN(CC)CCn1c2ccc(OC)cc2c2sc3cc(O)ccc3c(=O)c21: 13.9
CC(C)C1C2=C(NCCN1C(=O)c1ccncc1)C(C)(C)N(Cc1ccccc1)C2=O (centres undefined): 108
O=C1C=C(SCCO)C(=O)c2ccccc21: -14.4

Prompt: Report growth for CCN(CC)c1ccc(-c2cc(-c3cc(OC)c(OC)c(OC)c3)nc(N3CCC(O)CC3)c2C#N)cc1 please.
Response: 16.4

Just for reference, PubChem BioAssay (NCI) is where these values come from.
